Below, each entry is listed with its recorded IC50.
target-entity: Amine oxidase [flavin-containing] A (Homo sapiens)
Sequence (P21397 whole entry): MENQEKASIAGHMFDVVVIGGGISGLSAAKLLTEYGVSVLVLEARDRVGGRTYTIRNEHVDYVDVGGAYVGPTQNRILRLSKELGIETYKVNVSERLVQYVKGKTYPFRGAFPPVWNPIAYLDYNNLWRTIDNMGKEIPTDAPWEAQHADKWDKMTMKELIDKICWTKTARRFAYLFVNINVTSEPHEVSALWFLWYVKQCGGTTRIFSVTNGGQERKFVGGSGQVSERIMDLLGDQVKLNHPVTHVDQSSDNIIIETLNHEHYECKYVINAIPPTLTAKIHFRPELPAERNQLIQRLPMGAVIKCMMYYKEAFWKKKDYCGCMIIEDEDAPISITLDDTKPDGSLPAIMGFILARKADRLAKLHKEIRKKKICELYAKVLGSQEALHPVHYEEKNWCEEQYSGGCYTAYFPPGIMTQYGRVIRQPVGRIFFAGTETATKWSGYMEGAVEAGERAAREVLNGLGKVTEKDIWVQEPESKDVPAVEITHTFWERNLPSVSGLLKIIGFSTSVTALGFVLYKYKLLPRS
test: Inhibition of recombinant human MAO-A expressed in baculovirus infected BTI insect cells using p-tyramine as substrate pretreated for 15 mins followed by substrate addition by horse-radish peroxidase/amplex red-based fluorescence method
measured-property: IC50 (µM)

>  <line-notation>
COc1cccc2c(=O)cc(C(=O)NCCC3CCN(Cc4ccccc4)CC3)[nH]c12

>  <measured-property>
IC50

>  <modifier-sign>
=

>  <measured-result>
52.4

$$$$
>  <line-notation>
O=C(NCCC1CCN(Cc2ccccc2)CC1)c1cc(=O)c2cc([N+](=O)[O-])ccc2o1

>  <measured-property>
IC50

>  <modifier-sign>
=

>  <measured-result>
20.5

$$$$
>  <line-notation>
COc1ccc2c(=O)cc(C(=O)NCCC3CCN(Cc4ccccc4)CC3)[nH]c2c1

>  <measured-property>
IC50

>  <modifier-sign>
=

>  <measured-result>
72.7

$$$$
>  <line-notation>
Nc1ccc2oc(C(=O)NCCC3CCN(Cc4ccccc4)CC3)cc(=O)c2c1

>  <measured-property>
IC50

>  <modifier-sign>
>

>  <measured-result>
100

$$$$
>  <line-notation>
O=C(NCCC1CCN(Cc2ccccc2)CC1)c1cc(=O)c2cccc(O)c2[nH]1

>  <measured-property>
IC50

>  <modifier-sign>
>

>  <measured-result>
100

$$$$
>  <line-notation>
COc1ccc2[nH]c(C(=O)NCCC3CCN(Cc4ccccc4)CC3)cc(=O)c2c1

>  <measured-property>
IC50

>  <modifier-sign>
>

>  <measured-result>
100

$$$$
>  <line-notation>
COc1cc2oc(C(=O)NCCC3CCN(Cc4ccccc4)CC3)cc(=O)c2cc1OC

>  <measured-property>
IC50

>  <modifier-sign>
=

>  <measured-result>
15.3

$$$$
>  <line-notation>
COc1ccc2oc(C(=O)NCCCC3CCN(Cc4ccccc4)CC3)cc(=O)c2c1

>  <measured-property>
IC50

>  <modifier-sign>
>

>  <measured-result>
100

$$$$
>  <line-notation>
COc1cc2oc(C(=O)NCCCC3CCN(Cc4ccccc4)CC3)cc(=O)c2cc1OC

>  <measured-property>
IC50

>  <modifier-sign>
>

>  <measured-result>
100

$$$$
>  <line-notation>
O=C(NCCC1CCN(Cc2ccccc2)CC1)c1cc(=O)c2cc(O)ccc2[nH]1

>  <measured-property>
IC50

>  <modifier-sign>
=

>  <measured-result>
51.3

$$$$

###

target-entity: Amine oxidase [flavin-containing] B (Homo sapiens)
test: biochemical
Description: Inhibition of recombinant human MAO-B expressed in baculovirus infected BTI insect cells using p-tyramine as substrate pretreated for 15 mins followed by substrate addition by horse-radish peroxidase/amplex red-based fluorescence method
pIC50: −log10 of the molar value.
Below, each entry is listed with its recorded pIC50.

>  <line-notation>
COc1cccc2c(=O)cc(C(=O)NCCC3CCN(Cc4ccccc4)CC3)[nH]c12

>  <modifier-sign>
=

>  <pIC50>
4.15

$$$$
>  <line-notation>
COc1ccc2c(=O)cc(C(=O)NCCC3CCN(Cc4ccccc4)CC3)oc2c1

>  <modifier-sign>
<

>  <pIC50>
4.00

$$$$
>  <line-notation>
COc1cc2oc(C(=O)NCCCC3CCN(Cc4ccccc4)CC3)cc(=O)c2cc1OC

>  <modifier-sign>
<

>  <pIC50>
4.00

$$$$
>  <line-notation>
COc1ccc2c(=O)cc(C(=O)NCCC3CCN(Cc4ccccc4)CC3)[nH]c2c1

>  <modifier-sign>
=

>  <pIC50>
4.25

$$$$
>  <line-notation>
O=C(NCCCC1CCN(Cc2ccccc2)CC1)c1cc(=O)c2cc(O)ccc2o1

>  <modifier-sign>
<

>  <pIC50>
4.00

$$$$
>  <line-notation>
COc1ccc2oc(C(=O)NCCCC3CCN(Cc4ccccc4)CC3)cc(=O)c2c1

>  <modifier-sign>
<

>  <pIC50>
4.00

$$$$
>  <line-notation>
COc1cc2oc(C(=O)NCCC3CCN(Cc4ccccc4)CC3)cc(=O)c2cc1OC

>  <modifier-sign>
=

>  <pIC50>
5.28

$$$$
>  <line-notation>
O=C(NCCC1CCN(Cc2ccccc2)CC1)c1cc(=O)c2cc(O)ccc2[nH]1

>  <modifier-sign>
=

>  <pIC50>
4.22

$$$$
>  <line-notation>
COc1cc2[nH]c(C(=O)NCCC3CCN(Cc4ccccc4)CC3)cc(=O)c2cc1OC

>  <modifier-sign>
<

>  <pIC50>
4.00

$$$$
>  <line-notation>
O=C(NCCC1CCN(Cc2ccccc2)CC1)c1cc(=O)c2cc([N+](=O)[O-])ccc2o1

>  <modifier-sign>
<

>  <pIC50>
4.00

$$$$

###

target-entity: Acetylcholinesterase (Homo sapiens)
Sequence (P22303 whole entry): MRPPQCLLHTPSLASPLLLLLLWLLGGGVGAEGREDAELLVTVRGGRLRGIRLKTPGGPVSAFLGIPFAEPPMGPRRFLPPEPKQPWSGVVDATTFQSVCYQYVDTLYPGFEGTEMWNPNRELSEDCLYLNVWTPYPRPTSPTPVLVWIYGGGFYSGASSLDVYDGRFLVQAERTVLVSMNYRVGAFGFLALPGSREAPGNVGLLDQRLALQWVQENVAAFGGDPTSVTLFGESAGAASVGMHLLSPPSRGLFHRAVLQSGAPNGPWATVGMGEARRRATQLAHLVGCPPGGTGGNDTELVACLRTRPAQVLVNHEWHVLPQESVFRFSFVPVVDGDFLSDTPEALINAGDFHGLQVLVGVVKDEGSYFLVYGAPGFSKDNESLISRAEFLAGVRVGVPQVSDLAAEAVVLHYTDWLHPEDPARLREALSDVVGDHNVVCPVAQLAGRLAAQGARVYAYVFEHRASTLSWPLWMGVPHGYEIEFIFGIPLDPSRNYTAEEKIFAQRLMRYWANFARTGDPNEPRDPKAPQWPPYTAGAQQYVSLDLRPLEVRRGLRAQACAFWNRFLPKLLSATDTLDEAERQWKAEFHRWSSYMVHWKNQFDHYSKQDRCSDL
test: Inhibition of recombinant human AChE expressed in HEK293 cells using acetylthiocholine iodide as substrate pretreated for 5 mins followed by substrate addition and measured for 5 mins by Ellman's method
Please assign a class to every record based on measured IC50, with ranges label 0: < 0.3 µM; label 1: ≥ 0.3 µM and < 0.9 µM; label 2: ≥ 0.9 µM

>  <line-notation>
COc1cc2oc(C(=O)NCC3CCN(Cc4ccccc4)CC3)cc(=O)c2cc1OC

>  <target-entity>
Acetylcholinesterase (Homo sapiens)

>  <discrete-label>
label 2

$$$$
>  <line-notation>
O=C(NCCC1CCN(Cc2ccccc2)CC1)c1cc(=O)c2c(O)cc(O)cc2o1

>  <target-entity>
Acetylcholinesterase (Homo sapiens)

>  <discrete-label>
label 1

$$$$
>  <line-notation>
O=C(NCCC1CCN(Cc2ccccc2)CC1)c1cc(=O)c2ccccc2o1

>  <target-entity>
Acetylcholinesterase (Homo sapiens)

>  <discrete-label>
label 0

$$$$
>  <line-notation>
O=C(NCCC1CCN(Cc2ccccc2)CC1)c1cc(=O)c2cc([N+](=O)[O-])ccc2o1

>  <target-entity>
Acetylcholinesterase (Homo sapiens)

>  <discrete-label>
label 0

$$$$
>  <line-notation>
COc1ccc2oc(C(=O)NCCCC3CCN(Cc4ccccc4)CC3)cc(=O)c2c1

>  <target-entity>
Acetylcholinesterase (Homo sapiens)

>  <discrete-label>
label 1

$$$$
>  <line-notation>
COc1cccc2oc(C(=O)NCCC3CCN(Cc4ccccc4)CC3)cc(=O)c12

>  <target-entity>
Acetylcholinesterase (Homo sapiens)

>  <discrete-label>
label 1

$$$$
>  <line-notation>
O=C(NCCC1CCN(Cc2ccccc2)CC1)c1cc(=O)c2cccc(O)c2[nH]1

>  <target-entity>
Acetylcholinesterase (Homo sapiens)

>  <discrete-label>
label 2

$$$$

###

target-entity: UniProt P22303
test: Inhibition of recombinant human AChE expressed in HEK293 cells using acetylthiocholine iodide as substrate pretreated for 5 mins followed by substrate addition and measured for 5 mins by Ellman's method
Below, each entry is listed with its recorded IC50.
measured-property: IC50

>  <line-notation>
COc1cccc2c(=O)cc(C(=O)NCCC3CCN(Cc4ccccc4)CC3)[nH]c12

>  <measured-result>
1640 nM

$$$$
>  <line-notation>
COc1ccc2c(=O)cc(C(=O)NCCC3CCN(Cc4ccccc4)CC3)oc2c1

>  <measured-result>
33 nM

$$$$
>  <line-notation>
COc1ccc2c(=O)cc(C(=O)NCCC3CCN(Cc4ccccc4)CC3)[nH]c2c1

>  <measured-result>
450 nM

$$$$
>  <line-notation>
O=C(NCCC1CCN(Cc2ccccc2)CC1)c1cc(=O)c2cc(O)ccc2o1

>  <measured-result>
91 nM

$$$$
>  <line-notation>
COc1cc2oc(C(=O)OCCC3CCN(Cc4ccccc4)CC3)cc(=O)c2cc1OC

>  <measured-result>
56 nM

$$$$
>  <line-notation>
O=C(NC1CCN(Cc2ccccc2)CC1)c1cc(=O)c2cc(O)ccc2o1

>  <measured-result>
2360 nM

$$$$
>  <line-notation>
COc1ccc2oc(C(=O)OCC3CCN(Cc4ccccc4)CC3)cc(=O)c2c1

>  <measured-result>
7490 nM

$$$$
>  <line-notation>
COc1ccc2oc(C(=O)NC3CCN(Cc4ccccc4)CC3)cc(=O)c2c1

>  <measured-result>
970 nM

$$$$
>  <line-notation>
COc1cc2oc(C(=O)NC3CCN(Cc4ccccc4)CC3)cc(=O)c2cc1OC

>  <measured-result>
660 nM

$$$$
>  <line-notation>
Nc1ccc2oc(C(=O)NCCC3CCN(Cc4ccccc4)CC3)cc(=O)c2c1

>  <measured-result>
41 nM

$$$$

###

target-entity: Amine oxidase [flavin-containing] B (Homo sapiens, UniProt P27338)
Sequence (P27338 whole entry): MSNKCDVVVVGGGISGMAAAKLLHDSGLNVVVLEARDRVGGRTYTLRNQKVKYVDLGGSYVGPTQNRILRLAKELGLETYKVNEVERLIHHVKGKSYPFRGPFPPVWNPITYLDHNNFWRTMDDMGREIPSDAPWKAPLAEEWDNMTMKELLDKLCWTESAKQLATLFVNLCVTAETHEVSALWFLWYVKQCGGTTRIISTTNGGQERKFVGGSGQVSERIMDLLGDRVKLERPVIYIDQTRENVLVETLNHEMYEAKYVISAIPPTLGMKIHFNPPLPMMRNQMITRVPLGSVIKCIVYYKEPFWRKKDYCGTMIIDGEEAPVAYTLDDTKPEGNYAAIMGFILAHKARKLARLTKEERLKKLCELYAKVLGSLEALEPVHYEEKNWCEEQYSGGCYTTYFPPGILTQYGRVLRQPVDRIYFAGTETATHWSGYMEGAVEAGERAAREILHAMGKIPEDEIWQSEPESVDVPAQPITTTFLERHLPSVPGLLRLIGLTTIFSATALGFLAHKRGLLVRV
test: biochemical

>  <line-notation>
COc1ccc2oc(C(=O)NCCC3CCN(Cc4ccccc4)CC3)cc(=O)c2c1

>  <target-entity>
Amine oxidase [flavin-containing] B (Homo sapiens, UniProt P27338)

>  <IC50>
> 100 µM

$$$$
>  <line-notation>
Nc1ccc2oc(C(=O)NCCC3CCN(Cc4ccccc4)CC3)cc(=O)c2c1

>  <target-entity>
Amine oxidase [flavin-containing] B (Homo sapiens, UniProt P27338)

>  <IC50>
> 100 µM

$$$$
>  <line-notation>
COc1ccc2[nH]c(C(=O)NCCC3CCN(Cc4ccccc4)CC3)cc(=O)c2c1

>  <target-entity>
Amine oxidase [flavin-containing] B (Homo sapiens, UniProt P27338)

>  <IC50>
> 100 µM

$$$$
